Here's a roundup of pIC50 values tested on 11-beta-hydroxysteroid dehydrogenase 1 (Homo sapiens), taken from various published works.
pIC50: −log10 of the molar value.

# count of solved cases: 3
• C[C@@H](c1ccc(-c2ccc(F)cc2F)cc1)N1CCC(c2ccccc2)CC1=O (mixture of isomers) = > 7.00
• CCOC(=O)CC1CC2(CCN(C(=O)NCc3c(C)cccc3Cl)CC2)c2c(Br)cccc21 (stereo not shown) = > 7.00
• CN1C(=O)c2ccccc2C12CCN(C(=O)/C=C/c1ccccc1C(F)(F)F)CC2 = > 7.00

Request: # input compound: O=C(O)CC1CC2(CCN(C(=O)Cc3ccccc3C(F)(F)F)CC2)c2c(Cl)cccc21 (stereo not shown) ; wanted: its pIC50
Result: > 7.00

Request: Entry C[C@@H](c1ccc(-c2ccn(C3CC3)c(=O)c2)cc1)N1CCC[C@](CC(C)(C)O)(c2ccccc2)NC1=O please
Result: > 7.00

Request: Proceed to CCOC(=O)CC1CC2(CCN(C(=O)N(C)Cc3ccccc3C(F)(F)F)CC2)c2c(Br)cccc21 (stereo not shown)
Result: 6.00 to 7.00

Request: Now try CC1(CC2CCOCC2)SC(N[C@H]2C[C@@H]3CC[C@H]2C3)=NC1=O (stereo partly shown) .
Result: > 7.70

Request: Record: Cn1c2c(c3ccccc31)CCN(C(=O)c1cc3ncc(Br)cn3n1)CC2
Result: < 5.00

Request: Please give the result for O=C1CC2(CCN(C(=O)COc3ccccc3C(F)(F)F)CC2)c2c(Br)cccc21 too.
Result: > 7.00

Request: Another compound to look at: CC1(c2ccncc2)SC(Nc2ccccc2C(F)(F)F)=NC1=O (stereo not shown)
Result: > 7.70
